test: clinical; details: female, human, plasma, NET AUC0-t, Mean (% CV), Group B1 Period 2: EE2/NET followed by SYM-1219 2 grams on Day 1
METRIC NAME: AUC(0-t) (ng·h/mL)
Kindly answer with a numeric value in ng·h/mL, unit omitted.

Entry C#C[C@]1(O)CC[C@H]2[C@@H]3CCC4=CC(=O)CC[C@@H]4[C@H]3CC[C@@]21C ; AUC(0-t) = 53.5

====

experiment: clinical; conditions: female, human, plasma, NET AUC0-∞, Mean (% CV), Group B2 Period 2: SYM-1219 2 grams on Day 1, EE2/NET on Day 2
METRIC NAME: AUC(0-inf)

Entry C#C[C@]1(O)CC[C@H]2[C@@H]3CCC4=CC(=O)CC[C@@H]4[C@H]3CC[C@@]21C [NET, norethindrone] ; AUC(0-inf) = 71.5 ng·h/mL

====

test: clinical; settings: female, human, plasma, NET AUC0-∞, Mean (% CV), Group B2 Period 1: EE2/NET alone
METRIC NAME: AUC(0-inf) (ng·h/mL)
Kindly answer with a numeric value in ng·h/mL, unit omitted.

Entry C#C[C@]1(O)CC[C@H]2[C@@H]3CCC4=CC(=O)CC[C@@H]4[C@H]3CC[C@@]21C ; AUC(0-inf) = 75

====

test: clinical; settings: female, human, plasma, NET Cmax, Mean (% CV), Group B1 Period 2: EE2/NET followed by SYM-1219 2 grams on Day 1
METRIC NAME: Cmax (ng/mL)
Kindly answer with a numeric value in ng/mL, unit omitted.

Entry C#C[C@]1(O)CC[C@H]2[C@@H]3CCC4=CC(=O)CC[C@@H]4[C@H]3CC[C@@]21C [NET, norethindrone] ; Cmax = 10.1

====

experiment: clinical; settings: female, human, plasma, NET AUC0-t, Mean (% CV), Group B1 Period 1: EE2/NET alone
METRIC NAME: AUC(0-t)
I'd appreciate it if you wrote the number followed by its unit.

Entry C#C[C@]1(O)CC[C@H]2[C@@H]3CCC4=CC(=O)CC[C@@H]4[C@H]3CC[C@@]21C ; AUC(0-t) = 49.4 ng·h/mL

====

test: clinical; conditions: female, human, plasma, NET AUC0-t, Mean (% CV), Group B2 Period 2: SYM-1219 2 grams on Day 1, EE2/NET on Day 2
METRIC NAME: AUC(0-t)

Entry C#C[C@]1(O)CC[C@H]2[C@@H]3CCC4=CC(=O)CC[C@@H]4[C@H]3CC[C@@]21C ; AUC(0-t) = 0.0612 µg·h/mL

====

test: clinical; details: female, human, plasma, NET AUC0-t, Mean (% CV), Group B2 Period 1: EE2/NET alone
METRIC NAME: AUC(0-t) (ng·h/mL)
Kindly answer with a numeric value in ng·h/mL, unit omitted.

Entry C#C[C@]1(O)CC[C@H]2[C@@H]3CCC4=CC(=O)CC[C@@H]4[C@H]3CC[C@@]21C [NET, norethindrone] ; AUC(0-t) = 61.4

====

assay: clinical; conditions: female, human, plasma, NET AUC0-∞, Mean (% CV), Group B1 Period 2: EE2/NET followed by SYM-1219 2 grams on Day 1
METRIC NAME: AUC(0-inf) (µg·h/mL)
Kindly answer with a numeric value in µg·h/mL, unit omitted.

Entry C#C[C@]1(O)CC[C@H]2[C@@H]3CCC4=CC(=O)CC[C@@H]4[C@H]3CC[C@@]21C ; AUC(0-inf) = 0.0624

====

experiment: clinical; settings: female, human, plasma, NET Cmax, Mean (% CV), Group B1 Period 1: EE2/NET alone
METRIC NAME: Cmax (ng/mL)
Kindly answer with a numeric value in ng/mL, unit omitted.

Entry C#C[C@]1(O)CC[C@H]2[C@@H]3CCC4=CC(=O)CC[C@@H]4[C@H]3CC[C@@]21C ; Cmax = 9.18
